Test system: A549 NSCLC
Measurement description: NCI tumour cell line growth inhibition, 48 h
Readout name: TGI

Write down the reported TGI of Cc1[nH]c2ccccc2c1C1Cc2ccccc2N1C(=O)/C=C\C(=O)O (stereo unspecified) , test system: A549 NSCLC.
> 100 µM

Then what about the compound `O=c1c2c(nc3n1CCS3)[nH]c1ccccc12` ?
> 100 µM

Then what about the compound `CC(C)(C#N)c1cc(Cn2cncn2)cc(C(C)(C)C#N)c1` ?
> 10000 µM

Then what about the compound CCN(CC)C1Oc2cc3c(cc2C(c2ccc(OC)cc2)C1C)OCO3 (stereo unspecified) ?
74 µM

Then what about the compound Cc1oc2c(c1C)S(=O)(=O)C(C#N)C(c1ccccc1)N2 (stereo unspecified) ?
> 100 µM

Then what about the compound `COc1ccc2cc(Oc3ccc(Cl)cc3)c(=O)oc2c1` ?
> 100 µM

Then what about the compound CC(=O)O[C@H]1CC[C@H]2[C@@H]3CCC4C(C)=NNC(=O)C4[C@H]3CC[C@]12C (stereo partly specified) ?
> 100 µM

Then what about the compound COC(=O)C(C)NP(=O)(N1CC1)N1CC1 (stereo unspecified) ?
> 100 µM

Then what about the compound CC(O)c1cccc(NCc2c3ccccc3c(=O)n3c2oc2ccccc23)c1 (stereo unspecified) ?
24 µM

Then what about the compound `CC(=O)CC(=O)Nc1ccc2ccccc2c1` ?
> 100 µM

Then what about the compound `COc1ccc(CN(C)c2ccc(CO)c(Cl)c2)cc1` ?
55.6 µM

====

System: A549 NSCLC
Measurement description: NCI tumour cell line growth inhibition, 48 h
Readout name: TGI

Would you kindly share the measured TGI for `CN(C)C=Nc1cccc2nsnc12` ?
> 100 µM

Then what about the compound `CC(=O)[O-].CC(=O)[O-].[Pt+2].c1cscn1.c1cscn1` ?
> 100 µM

Then what about the compound `CCN1CCN(C(=O)[C@]23CC[C@@H](C)[C@H](C)[C@@H]2C2=CC[C@@H]4[C@@]5(C)C/C(=C/c6ccncc6)C(=O)C(C)(C)[C@@H]5CC[C@@]4(C)[C@]2(C)CC3)CC1` ?
3.72 µM

Then what about the compound `Cc1c(C)c2c(c(N)c1C#N)C(=O)N(CCc1ccccc1)C2=O` ?
> 100 µM

Then what about the compound `O=S(=O)(NC1=NCCN1C(=S)SN1CCn2c1nsc2=S)c1ccc(Br)cc1` ?
> 100 µM

Then what about the compound O=C1CC(CC(O)[C@@H]2CCCC[C@@H]2O)CC(=O)N1c1ccccc1 (stereo partly drawn) ?
> 100 µM

Then what about the compound `Cc1ccc2c(c1)C(=O)/C(=N/Nc1ccc(Cl)cc1)CCO2` ?
> 100 µM

Then what about the compound CCCCCCCCCCCCCCCCCCNc1ccn(C2OC(COP(=O)(O)OC3CC(n4cc(F)c(=O)[nH]c4=O)OC3COP(=O)(O)OCC3OC(n4ccc(N)nc4=O)C(O)C3O)C(O)C2O)c(=O)n1 (stereo not drawn) ?
> 51 µM

Then what about the compound CCN(CC)CC(O)CNc1ccc(NCC2CO2)c2c1C(=O)c1ccccc1C2=O (stereo not drawn) ?
5.69 µM

Then what about the compound `COc1ccc(OC)c2sc(N3C(=O)/C(=C/c4ccc(Cl)cc4)N=C3c3ccccc3)nc12` ?
> 100 µM

Then what about the compound `Nc1nc(N)c2cc(Sc3ccc4nc(N)nc(N)c4c3)ccc2n1` ?
> 100 µM

Then what about the compound `CC(C)c1ccc(C(=O)Nc2nc3ccc(O)cc3s2)cc1` ?
> 100 µM

Then what about the compound `O=C1c2ccccc2C(=O)N1CCCSc1ccccc1` ?
> 100 µM

Then what about the compound `O=C1c2ccccc2-c2c1c1ccccc1c(=O)n2CCCNCCCn1ccnc1` ?
20.1 µM

Then what about the compound `C[C@]12C[C@H](c3ccccc3)Nc3ccccc3N1C(c1ccccc1)=NO2` ?
> 100 µM

Then what about the compound `CN[C@@H](C)C(=O)N[C@H](C(=O)N1CCC[C@H]1C(=O)N[C@H]1c2ccccc2C[C@H]1OCC#CC#CCO[C@@H]1Cc2ccccc2[C@@H]1NC(=O)[C@@H]1CCCN1C(=O)[C@@H](NC(=O)[C@H](C)NC)C1CCCCC1)C1CCCCC1` ?
31.5 µM

Then what about the compound `CC(=O)Oc1cc2c(n(C)c1=O)-c1ccccc1C2` ?
> 100 µM

Then what about the compound `COc1ccccc1N1C(=O)/C(=C/c2ccc(N(CCC#N)CCC#N)cc2C)N=C1c1cc([N+](=O)[O-])ccc1Cl` ?
> 100 µM

====

Tested on: IGROV1 ovarian
Measurement description: NCI tumour cell line growth inhibition, 48 h
Answer each item with its documented TGI.

Would you kindly share the measured TGI for c1ccc2c(C3CCN(CCN4CCOCC4)C3)c[nH]c2c1 (stereo not given) ?
> 100 µM

Then what about the molecule C=CCC(N[C@H](CO)c1ccccc1)c1ccc2ccccc2n1 (stereo not given in full) ?
> 100 µM

Then what about the molecule COc1ccc(NC(=O)C(=O)C(C(=O)c2ccccc2)C2OC(=O)c3ccccc32)c([N+](=O)[O-])c1 (stereo not given) ?
> 100 µM

Then what about the molecule `CCN(CC)c1cc2c3c(c1)CCCN3CCC2` ?
> 10 µM

Then what about the molecule `COc1c2nc(CCl)[nH]c(=O)c2c(OC)c2nc(CCl)[nH]c(=O)c12` ?
> 100 µM

Then what about the molecule `CCC1(CC)C(=O)OC(=O)C1(CC)CC` ?
> 100 µM

Then what about the molecule `CC(=O)[O-].CC(=O)[O-].[Pt+2].c1cscn1.c1cscn1` ?
> 100 µM

Then what about the molecule `CCOC(=O)NC(=O)c1cn(CC(=O)NCC(=O)NCC(=O)NCCCN2CCN(CCCNC(=O)CNC(=O)CNC(=O)Cn3cc(C(=O)NC(=O)OCC)c(=O)[nH]c3=O)CC2)c(=O)[nH]c1=O` ?
> 100 µM

Then what about the molecule `CC(=O)C(I(OS(=O)(=O)c1ccc(C)cc1)c1ccccc1)=P(c1ccccc1)(c1ccccc1)c1ccccc1` ?
73.5 µM

Then what about the molecule `COc1cccc(OC/C(N=Cc2cccnc2)=N/NC(=O)c2ccncc2)c1` ?
> 100 µM

====

Tested on: DLD-1 colon
Measurement description: NCI tumour cell line growth inhibition, 48 h
Readout name: TGI

Write down the reported TGI of COC1CC(C)C(OC)C2=CC(=O)C=C(NC(=O)/C(C)=C/C=C\C(C)C(OC(N)=O)/C(C)=C\C(C)C1OC)C2=O (centres undefined) , test system: DLD-1 colon.
2.58 µM

Then what about the compound `CCCCOC(=O)NC(=O)c1cn(CCCOC(=O)CCCCCCCCC(=O)OCCCn2cc(C(=O)NC(=O)OCCCC)c(=O)[nH]c2=O)c(=O)[nH]c1=O` ?
> 100 µM

Then what about the compound Ic1ncnc2c1ncn2C1CCCO1 (centres undefined) ?
> 100 µM

Then what about the compound `CCNC(=O)CCN(C(=O)O)S(=O)(=O)c1ccc(NC(=O)c2ccccc2)cc1` ?
> 100 µM

====

Answer each item with its documented TGI.
Tested on: HL-60(TB) leukemia
Measurement description: NCI tumour cell line growth inhibition, 48 h

Would you kindly share the measured TGI for C=C1C(=O)C23CC1C[C@H](OC(C)=O)[C@H]2C1(C)C(OC(C)=O)C[C@H](O)C(C)(C)[C@H]1C(=O)[C@@H]3OC(C)=O (stereo partly drawn) ?
4.47 µM

Then what about the compound COc1cc(S(=O)(=O)Nc2nc(-c3ccc(N4C(=O)C(CC(=O)O)SC4c4ccccc4O)cc3)cs2)ccc1Cl (stereo not drawn) ?
57 µM

Then what about the compound `O=c1c(Oc2ccc(F)cc2F)cc2cnc(NC3CCOCC3)nc2n1C1CCS(=O)(=O)CC1` ?
> 25 µM

Then what about the compound `CC(C)c1ccc(C(=O)Nc2nc3ccc(O)cc3s2)cc1` ?
20.2 µM

Then what about the compound Cc1ccc2nc(CN3CCCC(O)C3)cc(=O)n2c1 (stereo not drawn) ?
> 100 µM

Then what about the compound `CO[C@H]1c2cccc3cccc(c23)[C@@H]1n1[nH]c(=O)n(C(C)(C)C)c1=O` ?
> 100 µM

Then what about the compound `O=c1[nH]c(C23CC4CC(CC(C4)C2)C3)cc2c1c(=O)oc1ccccc12` ?
> 100 µM

Then what about the compound `O=c1[nH]n(Cc2ccccc2Cl)c2ccc([N+](=O)[O-])cc12` ?
> 100 µM

Then what about the compound `C=C(Cl)c1c(OC)cccc1OCc1ccccc1` ?
> 100 µM

Then what about the compound `CCOC(=O)Nc1nc2ccc(Cn3cccc3)cc2[nH]1` ?
13.4 µM

Then what about the compound CC12CCC3[C@@H](CC3(C)C)C(O)(CCC1=O)C2 (stereo partly drawn) ?
> 100 µM

Then what about the compound `COc1ccc(CN(C)c2ccc(CO)c(Cl)c2)cc1` ?
64.8 µM

Then what about the compound `Cc1c(NC(=O)C(C)(C)Br)c(=O)oc2c(C)c3occc(=O)c3cc12` ?
> 100 µM

Then what about the compound COc1cc(S(=O)(=O)Nc2nc(-c3ccc(N4C(=O)CSC4c4cccs4)cc3)cs2)ccc1Cl (stereo not drawn) ?
> 100 µM

Then what about the compound `NOCC(=O)O` ?
> 100 µM

Then what about the compound `CC(=O)[O-].CC(=O)[O-].[Pt+2].c1cscn1.c1cscn1` ?
> 100 µM

Then what about the compound `COc1ccc2c(c1)/C(=C\c1c(C)nc3n1CCS3)C(=O)N2` ?
66.8 µM

Then what about the compound `CCOC(=O)C(Cc1c[nH]c2ccc(N)cc12)(NC(C)=O)C(=O)OCC` ?
> 1000 µM

Then what about the compound `Cc1cc([C@H](C#N)c2nc3ccccc3[nH]2)nc(Cl)n1` ?
> 100 µM

Then what about the compound `COc1cc(/C=C(\C#N)c2nc3ccccc3o2)ccc1O` ?
55.3 µM

Then what about the compound `COc1cc(/C=C(\C#N)C(=O)c2ccccc2)ccc1OCc1ccccc1` ?
> 100 µM

Then what about the compound CC[C@@H]1OC2(C)CC(S(=O)(=O)c3ccccc3O)CC1O2 (stereo partly drawn) ?
> 100 µM

Then what about the compound O=C1c2ccccc2C(O)(C(=O)O)C1(O)CC=C(Cl)Cl (stereo not drawn) ?
> 125 µM
